- Tested on: Escherichia coli TOP10
- protocolSummary: shrunken log2 fold change of peptide-encoding DNA abundance (4.5 h post-induction vs induction); higher = less antimicrobial activity (less host growth inhibition)
- experimentalContext: time post-induction: 4.5 h; library: site-saturation at positions 5, 18, 19, 20
Returns one of label 1 or label 0; label 1 when shrunken log2 fold change is >= -0.01.

Challenge: Could you verify whether the entry RRIRWRPPRLPRPRPRPRFWPRP shows shrunken log2 fold change of no less than -0.01?
Response given: label 1

Challenge: Could you verify whether the entry RRIRDRPPRLPRPRPRPITNPRP shows shrunken log2 fold change of no less than -0.01?
Response given: label 0

Challenge: Could you verify whether the entry RRIRTRPPRLPRPRPRPNNVPRP shows shrunken log2 fold change of no less than -0.01?
Response given: label 0

Challenge: Could you verify whether the entry RRIRSRPPRLPRPRPRPTTEPRP shows shrunken log2 fold change of no less than -0.01?
Response given: label 1

Challenge: Could you verify whether the entry RRIRERPPRLPRPRPRPQPWPRP shows shrunken log2 fold change of no less than -0.01?
Response given: label 0

Challenge: Could you verify whether the entry RRIRCRPPRLPRPRPRPQTYPRP shows shrunken log2 fold change of no less than -0.01?
Response given: label 0

Challenge: Could you verify whether the entry RRIRSRPPRLPRPRPRPASSPRP shows shrunken log2 fold change of no less than -0.01?
Response given: label 0

Challenge: Could you verify whether the entry RRIRIRPPRLPRPRPRPEEYPRP shows shrunken log2 fold change of no less than -0.01?
Response given: label 0

Challenge: Could you verify whether the entry RRIRMRPPRLPRPRPRPVPMPRP shows shrunken log2 fold change of no less than -0.01?
Response given: label 1

Challenge: Could you verify whether the entry RRIRFRPPRLPRPRPRPLHFPRP shows shrunken log2 fold change of no less than -0.01?
Response given: label 1

Challenge: Could you verify whether the entry RRIRWRPPRLPRPRPRPAEGPRP shows shrunken log2 fold change of no less than -0.01?
Response given: label 1

Challenge: Could you verify whether the entry RRIRRRPPRLPRPRPRPFLVPRP shows shrunken log2 fold change of no less than -0.01?
Response given: label 0

Challenge: Could you verify whether the entry RRIRARPPRLPRPRPRPTHRPRP shows shrunken log2 fold change of no less than -0.01?
Response given: label 1

Challenge: Could you verify whether the entry RRIRRRPPRLPRPRPRPGEWPRP shows shrunken log2 fold change of no less than -0.01?
Response given: label 1

Challenge: Could you verify whether the entry RRIRGRPPRLPRPRPRPNVDPRP shows shrunken log2 fold change of no less than -0.01?
Response given: label 1

Challenge: Could you verify whether the entry RRIRQRPPRLPRPRPRPARAPRP shows shrunken log2 fold change of no less than -0.01?
Response given: label 1

Challenge: Could you verify whether the entry RRIRTRPPRLPRPRPRPENQPRP shows shrunken log2 fold change of no less than -0.01?
Response given: label 1

Challenge: Could you verify whether the entry RRIRWRPPRLPRPRPRPGMDPRP shows shrunken log2 fold change of no less than -0.01?
Response given: label 1

Challenge: Could you verify whether the entry RRIRDRPPRLPRPRPRPVEAPRP shows shrunken log2 fold change of no less than -0.01?
Response given: label 1

Challenge: Could you verify whether the entry RRIRQRPPRLPRPRPRPSDDPRP shows shrunken log2 fold change of no less than -0.01?
Response given: label 0

Challenge: Could you verify whether the entry RRIRLRPPRLPRPRPRPCWPPRP shows shrunken log2 fold change of no less than -0.01?
Response given: label 1

Challenge: Could you verify whether the entry RRIRLRPPRLPRPRPRPPFDPRP shows shrunken log2 fold change of no less than -0.01?
Response given: label 1

Challenge: Could you verify whether the entry RRIRFRPPRLPRPRPRPAALPRP shows shrunken log2 fold change of no less than -0.01?
Response given: label 0

Challenge: Could you verify whether the entry RRIRYRPPRLPRPRPRPPWLPRP shows shrunken log2 fold change of no less than -0.01?
Response given: label 1

Challenge: Could you verify whether the entry RRIRTRPPRLPRPRPRPKKSPRP shows shrunken log2 fold change of no less than -0.01?
Response given: label 0

Challenge: Could you verify whether the entry RRIRTRPPRLPRPRPRPREEPRP shows shrunken log2 fold change of no less than -0.01?
Response given: label 1

Challenge: Could you verify whether the entry RRIRTRPPRLPRPRPRPTFKPRP shows shrunken log2 fold change of no less than -0.01?
Response given: label 0

Challenge: Could you verify whether the entry RRIRGRPPRLPRPRPRPSGMPRP shows shrunken log2 fold change of no less than -0.01?
Response given: label 1

Challenge: Could you verify whether the entry RRIRNRPPRLPRPRPRPEPVPRP shows shrunken log2 fold change of no less than -0.01?
Response given: label 0

Challenge: Could you verify whether the entry RRIRWRPPRLPRPRPRPGPWPRP shows shrunken log2 fold change of no less than -0.01?
Response given: label 1

----------
- System: Escherichia coli TOP10
- protocolSummary: shrunken log2 fold change of peptide-encoding DNA abundance (4.5 h post-induction vs induction); higher = less antimicrobial activity (less host growth inhibition)
- experimentalContext: time post-induction: 4.5 h; library: site-saturation at positions 5, 18, 19, 20
Record form. Attribute: shrunken log2 fold change. Fill in for each entry.
Could you respond with only the numeric value?

Challenge: // shrunken log2 fold change lookup, key: RRIRVRPPRLPRPRPRPGKIPRP
Response given: -0.346

Challenge: // shrunken log2 fold change lookup, key: RRIRGRPPRLPRPRPRPYWIPRP
Response given: -0.311

Challenge: // shrunken log2 fold change lookup, key: RRIRVRPPRLPRPRPRPWEFPRP
Response given: -0.102

Challenge: // shrunken log2 fold change lookup, key: RRIRLRPPRLPRPRPRPHDQPRP
Response given: 0.276

Challenge: // shrunken log2 fold change lookup, key: RRIRNRPPRLPRPRPRPLRNPRP
Response given: 0.267

Challenge: // shrunken log2 fold change lookup, key: RRIRWRPPRLPRPRPRPMIHPRP
Response given: -0.0666

Challenge: // shrunken log2 fold change lookup, key: RRIRTRPPRLPRPRPRPCIVPRP
Response given: -0.164

Challenge: // shrunken log2 fold change lookup, key: RRIRGRPPRLPRPRPRPQMQPRP
Response given: 1.04

Challenge: // shrunken log2 fold change lookup, key: RRIRSRPPRLPRPRPRPMFQPRP
Response given: 0.0483

Challenge: // shrunken log2 fold change lookup, key: RRIRLRPPRLPRPRPRPGQPPRP
Response given: 0.187

Challenge: // shrunken log2 fold change lookup, key: RRIRFRPPRLPRPRPRPNPFPRP
Response given: 0.0605

Challenge: // shrunken log2 fold change lookup, key: RRIRVRPPRLPRPRPRPENWPRP
Response given: 0.131

Challenge: // shrunken log2 fold change lookup, key: RRIRRRPPRLPRPRPRPPRPPRP
Response given: 1.01

Challenge: // shrunken log2 fold change lookup, key: RRIRIRPPRLPRPRPRPDNSPRP
Response given: -1.35

Challenge: // shrunken log2 fold change lookup, key: RRIRARPPRLPRPRPRPNEYPRP
Response given: -0.284

Challenge: // shrunken log2 fold change lookup, key: RRIRIRPPRLPRPRPRPTDTPRP
Response given: -1.86

Challenge: // shrunken log2 fold change lookup, key: RRIRARPPRLPRPRPRPALPPRP
Response given: 0.309

Challenge: // shrunken log2 fold change lookup, key: RRIRRRPPRLPRPRPRPHQDPRP
Response given: 0.0414

Challenge: // shrunken log2 fold change lookup, key: RRIRSRPPRLPRPRPRPHFGPRP
Response given: -0.195

Challenge: // shrunken log2 fold change lookup, key: RRIRVRPPRLPRPRPRPCASPRP
Response given: 0.116

Challenge: // shrunken log2 fold change lookup, key: RRIRPRPPRLPRPRPRPCQHPRP
Response given: -0.161

Challenge: // shrunken log2 fold change lookup, key: RRIRWRPPRLPRPRPRPVNAPRP
Response given: 0.0945

----------
- System: Escherichia coli TOP10;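 note: peptides expressed intracellularly from a pBAD plasmid library in pooled LB shake-flask culture, induced with 0.3% L-arabinose, DNA abundance read by NGS, three biological replicates, DESeq2 with apeglm shrinkage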
- protocolSummary: shrunken log2 fold change of peptide-encoding DNA abundance (4.5 h post-induction vs induction); higher = less antimicrobial activity (less host growth inhibition)
- experimentalContext: time post-induction: 4.5 h; library: site-saturation at positions 5, 18, 19, 20
readoutKind: shrunken log2 fold change
Could you respond with only the numeric value?

Challenge: // shrunken log2 fold change lookup, key: RRIRQRPPRLPRPRPRPQAGPRP
Response given: -0.158

Challenge: // shrunken log2 fold change lookup, key: RRIRGRPPRLPRPRPRPFFGPRP
Response given: 0.188

Challenge: // shrunken log2 fold change lookup, key: RRIRDRPPRLPRPRPRPCTDPRP
Response given: -0.00136

Challenge: // shrunken log2 fold change lookup, key: RRIRARPPRLPRPRPRPCFNPRP
Response given: 0.0639

Challenge: // shrunken log2 fold change lookup, key: RRIRYRPPRLPRPRPRPMFDPRP
Response given: -1.4

Challenge: // shrunken log2 fold change lookup, key: RRIRDRPPRLPRPRPRPYITPRP
Response given: -0.879

Challenge: // shrunken log2 fold change lookup, key: RRIRNRPPRLPRPRPRPYDAPRP
Response given: -0.066

Challenge: // shrunken log2 fold change lookup, key: RRIRTRPPRLPRPRPRPMIGPRP
Response given: -0.107

Challenge: // shrunken log2 fold change lookup, key: RRIRIRPPRLPRPRPRPYWHPRP
Response given: -0.718

Challenge: // shrunken log2 fold change lookup, key: RRIRYRPPRLPRPRPRPSFRPRP
Response given: -0.59

Challenge: // shrunken log2 fold change lookup, key: RRIRDRPPRLPRPRPRPRRWPRP
Response given: 0.453

Challenge: // shrunken log2 fold change lookup, key: RRIRQRPPRLPRPRPRPQNEPRP
Response given: 0.121

Source listed as the supplement of paper PMC9112550.
